The measurements presented in this section are drawn from patent US20250196025A1.

target: IgG (Gammanorm); assay: SPR (Biacore), variant amine-coupled to CM5 chip, Gammanorm as analyte, steady state affinity fit
pKd: −log10 of the molar value.
readout_kind: pKd

(A) Protein L variant pAM239 (domain B4-1; H10, H45, Q60) (protein) PKEEVTIKAHLIYADGKTQTAEFKGTFAEATAEAYRYADLLAKEHGKYTADLEDGGYTIQIRFAGKKVDEKPEE
(B) Protein L variant pAM245 (domain C3-1; H10, H45, Q60) (protein) PKEEVTIKVHLIFADGKIQTAEFKGTFEEATAKAYAYANLLAKEHGEYTADLEDGGNTIQIKFAGKETPETPEE
Of the two listed items, which has the higher pKd? First: A Second: B Reply with the label of the item you choose.
A
(A: 7.22, B: 6.87)

(a) Protein L variant pAM260 (domain C3b-2; H10, H45, Y60) (protein) PKEEVTIKVHLIFADGKIQTAEFKGTFEEATAKAYAYADLLAKEHGEYTADLEDGGYTIYIKFAGKETPETPEE
(b) Protein L variant pAM235 (domain B1-1; H10, H45, Q60) (protein) SEEEVTIKAHLIFANGSTQTAEFKGTFEKATSEAYAYADTLKKDHGEYTVDVADKGYTLQIKFAGKEKTPEE
Smaller pKd value, a vs b ? Lab note: record the label of whichever item you select.
b
(b: 7.00, a: 7.29)
